// reported log10 of EC50 per item
target system: human RXFP1 (Homo sapiens, UniProt Q9HBX9)
Construct: expressed in transfected cells
Sequence (Q9HBX9 1-757): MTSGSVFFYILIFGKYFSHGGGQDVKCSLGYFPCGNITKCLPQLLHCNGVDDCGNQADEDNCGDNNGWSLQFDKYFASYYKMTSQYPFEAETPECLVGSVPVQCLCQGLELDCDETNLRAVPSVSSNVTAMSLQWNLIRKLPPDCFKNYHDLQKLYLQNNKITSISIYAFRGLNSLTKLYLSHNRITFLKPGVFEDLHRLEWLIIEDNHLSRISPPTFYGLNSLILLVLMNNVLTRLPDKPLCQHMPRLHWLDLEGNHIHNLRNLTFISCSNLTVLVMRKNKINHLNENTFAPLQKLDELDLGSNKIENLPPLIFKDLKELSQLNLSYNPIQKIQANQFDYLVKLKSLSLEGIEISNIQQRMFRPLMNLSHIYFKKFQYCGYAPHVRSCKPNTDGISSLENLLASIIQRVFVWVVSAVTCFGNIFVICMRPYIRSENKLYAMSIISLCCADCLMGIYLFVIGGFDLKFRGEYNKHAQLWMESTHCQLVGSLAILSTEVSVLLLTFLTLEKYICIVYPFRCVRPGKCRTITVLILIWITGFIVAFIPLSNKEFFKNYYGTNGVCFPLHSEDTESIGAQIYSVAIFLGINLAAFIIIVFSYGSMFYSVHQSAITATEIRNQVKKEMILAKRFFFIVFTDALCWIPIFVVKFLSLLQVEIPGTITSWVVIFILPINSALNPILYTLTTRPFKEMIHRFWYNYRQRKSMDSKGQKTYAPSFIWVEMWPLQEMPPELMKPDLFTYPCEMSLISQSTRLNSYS
assay explanation: RXFP1 cAMP assay (hRXFP1 HEK293 cAMP assay, HTRF)
Assay type: cell-based
run conditions: HEK293 cells stably expressing human RXFP1, 30 min at room temperature, read-out: cAMP hRXFP1 HEK293 Assay EC50
Recall that a logarithmic scale is used here: each number is log10 of EC50 in nM.

[[record]]
molecule = "COc1ccc(-c2cccnc2)cc1C(=O)N[C@@H]1C2CCC(/C2=C/C2CC2)[C@@H]1C(=O)Nc1ccc(F)c(C(F)(F)F)c1 (stereo partly shown)"
observed_result = 1.51

[[record]]
molecule = "CCOC(=O)c1ccnn1-c1ccc(OC)c(C(=O)N[C@@H]2C3CCC(/C3=C/C(F)(F)F)[C@@H]2C(=O)Nc2ccc(F)c(C(F)(F)F)c2)c1 (stereo partly shown)"
observed_result = 2.88

[[record]]
molecule = "COc1ccc(-c2cc(C(CC(=O)O)C(F)(F)F)ccc2F)cc1C(=O)N[C@H]1[C@@H](C(=O)Nc2ccc(F)c(C(F)(F)F)c2)[C@H]2CC[C@@H]1/C2=C\\C1CC1 (stereo partly shown)"
observed_result = 0.52


Prompt line: Answer with log10 of EC50 of COc1ccc(C2CC3COCC32)cc1C(=O)N[C@H]1[C@@H](C(=O)Nc2ccc(F)c(C(F)(F)F)c2)[C@H]2CC[C@@H]1/C2=C\C1CC1 (single isomer, unassigned) [compound 729] measured for human RXFP1 (Homo sapiens, UniProt Q9HBX9).
Response line: 1.91

Prompt line: Answer with log10 of EC50 of COc1ccc(C2=NOC3CC(CO)CC23)cc1C(=O)N[C@@H]1C2CCC(/C2=C/C2CC2)[C@@H]1C(=O)Nc1ccc(F)c(C(F)(F)F)c1 (single isomer, unassigned) [compound 433] measured for human RXFP1 (Homo sapiens, UniProt Q9HBX9).
Response line: 0.30

Prompt line: Answer with log10 of EC50 of COc1ccc(C2=NOC(C(C)(O)C(F)(F)F)C2)cc1C(=O)N[C@H]1[C@@H](C(=O)Nc2ccc(F)c(C(F)(F)F)c2)[C@H]2CC[C@@H]1/C2=C\C1CC1 (single isomer, unassigned) [compound 682] measured for human RXFP1 (Homo sapiens, UniProt Q9HBX9).
Response line: 2.79

Prompt line: Answer with log10 of EC50 of COc1ccc(C2=NOC3COCC23)cc1C(=O)N[C@H]1[C@@H](C(=O)N[C@@H](C)C(C)(C)C)[C@H]2CC[C@@H]1/C2=C\C1CC1 (stereo partly shown) measured for human RXFP1 (Homo sapiens, UniProt Q9HBX9).
Response line: 1.48

Prompt line: Answer with log10 of EC50 of COc1ccc(-c2cc(C(C)O)ccc2F)cc1C(=O)N[C@@H]1C2CCC(/C2=C/C2CC2)[C@@H]1C(=O)Nc1ccc(F)c(C(F)(F)F)c1 (stereo partly shown) measured for human RXFP1 (Homo sapiens, UniProt Q9HBX9).
Response line: 0.60

Prompt line: Answer with log10 of EC50 of COc1ccc(-c2cc(C(=O)Nc3nnn[nH]3)ccc2F)cc1C(=O)N[C@@H]1C2CCC(/C2=C/c2cnoc2)[C@@H]1C(=O)Nc1ccc(F)c(C(F)(F)F)c1 (stereo partly shown) measured for human RXFP1 (Homo sapiens, UniProt Q9HBX9).
Response line: 2.13

Prompt line: Answer with log10 of EC50 of O=C(N[C@H]1[C@@H](C(=O)Nc2ccc(F)c(C(F)(F)F)c2)[C@H]2CC[C@@H]1/C2=C\C1CC1)c1cc(C2=NOC3COCC23)ccc1F (single isomer, unassigned) [compound 514] measured for human RXFP1 (Homo sapiens, UniProt Q9HBX9).
Response line: 1.24

###

target system: human RXFP1 (Homo sapiens, UniProt Q9HBX9)
Construct: expressed in transfected cells
assay explanation: RXFP1 cAMP assay (hRXFP1 HEK293 cAMP assay, HTRF)
Type: cell-based
run conditions: HEK293 cells stably expressing human RXFP1, 30 min at room temperature, read-out: cAMP hRXFP1 HEK293 Assay EC50
Description: RXFP1 Cyclic Adenosine Monophosphate (cAMP) Assays. […] Cells were dissociated and suspended in assay buffer. The assay buffer was HBSS buffer (with calcium and magnesium) containing 20 mM HEPES, 0.05% BSA, and 0.5 mM IBMX. […] The level of intracellular cAMP was determined using the HTRF HiRange cAMP assay reagent kit (Cisbio) according to manufacturer's instructions. […]
observed property: pEC50
# pEC50 is unitless: minus log10 of the molar concentration; print number only

Example results:
[[record]]
compound = "COC(=O)c1cnn2cc(-c3ccc(OC)c(C(=O)N[C@@H]4C5CCC(/C5=C/C(F)(F)F)[C@@H]4C(=O)Nc4ccc(F)c(C(F)(F)F)c4)c3)ccc12 (some centres unmarked)"
observed_result = 7.05

[[record]]
compound = "COc1cc(F)c(F)cc1C(=O)N[C@@H]1C2CCC(/C2=C/c2cccnc2)[C@@H]1C(=O)Nc1ccc(F)c(C(F)(F)F)c1 (some centres unmarked)"
observed_result = 6.15

[[record]]
compound = "COc1ccc(-c2cc(C(OC(=O)NC3CC3)C(F)(F)F)ccc2F)cc1C(=O)N[C@@H]1C2CCC(/C2=C/C2CC2)[C@@H]1C(=O)Nc1ccc(F)c(C(F)(F)F)c1 (some centres unmarked)"
observed_result = 9.00

[[record]]
compound = "COc1ccc(-c2cc(C3=NOC(C(=O)O)C3)ccc2F)cc1C(=O)N[C@H]1[C@@H](C(=O)Nc2ccc(F)c(C(F)(F)F)c2)[C@H]2CC[C@@H]1/C2=C\\C1CC1 (some centres unmarked) [compound 947]"
observed_result = 8.07


Consider the additional compound presented here.
Prompt line: Answer with pEC50 of CCCCC1[C@H]2CC[C@@H]1[C@H](C(=O)Nc1ccc(F)c(C(F)(F)F)c1)[C@@H]2NC(=O)c1cc(C2=NOC3CC(CO)CC23)ccc1OC (some centres unmarked) measured for human RXFP1 (Homo sapiens, UniProt Q9HBX9).
Response line: 8.40

###

target system: human RXFP1 (Homo sapiens, UniProt Q9HBX9)
Construct: expressed in transfected cells
Sequence (Q9HBX9 1-757): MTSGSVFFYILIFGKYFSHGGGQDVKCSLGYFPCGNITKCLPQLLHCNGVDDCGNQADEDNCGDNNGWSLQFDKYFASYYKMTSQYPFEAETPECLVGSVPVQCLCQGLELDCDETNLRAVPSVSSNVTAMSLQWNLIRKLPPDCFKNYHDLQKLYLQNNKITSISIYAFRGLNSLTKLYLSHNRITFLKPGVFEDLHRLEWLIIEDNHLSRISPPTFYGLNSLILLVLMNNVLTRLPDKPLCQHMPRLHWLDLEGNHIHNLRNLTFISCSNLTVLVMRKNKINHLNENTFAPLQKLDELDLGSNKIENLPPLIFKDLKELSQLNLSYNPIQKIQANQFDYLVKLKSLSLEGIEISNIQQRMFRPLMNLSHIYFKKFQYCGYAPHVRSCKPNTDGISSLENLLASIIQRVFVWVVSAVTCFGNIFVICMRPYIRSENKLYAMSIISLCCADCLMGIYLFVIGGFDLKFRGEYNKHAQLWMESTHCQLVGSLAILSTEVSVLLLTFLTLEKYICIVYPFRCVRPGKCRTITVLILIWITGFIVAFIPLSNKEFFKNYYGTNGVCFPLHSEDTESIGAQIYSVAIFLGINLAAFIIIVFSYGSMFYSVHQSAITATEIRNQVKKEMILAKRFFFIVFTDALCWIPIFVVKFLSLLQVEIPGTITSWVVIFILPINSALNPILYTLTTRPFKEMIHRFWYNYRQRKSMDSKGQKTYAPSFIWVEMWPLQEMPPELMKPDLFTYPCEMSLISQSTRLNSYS
assay explanation: RXFP1 cAMP assay (hRXFP1 HEK293 cAMP assay, HTRF)
Assay type: cell-based
run conditions: HEK293 cells stably expressing human RXFP1, 30 min at room temperature, read-out: cAMP hRXFP1 HEK293 Assay EC50
observed property: EC50 (nM)
Please respond with the number in nM and leave the unit unwritten.

Example results:
[[record]]
compound = "COCC1(CNC(=O)[C@@H]2[C@H](NC(=O)c3cc(C4=NOC5COCC45)ccc3OC)[C@@H]3CC[C@H]2/C3=C/C2CC2)CC1 (some centres unmarked)"
target_system = "human RXFP1 (Homo sapiens, UniProt Q9HBX9)"
observed_property = "EC50"
observed_result = 1090

[[record]]
compound = "COc1ccc([C@@]2(O)CO[C@@H]3[C@@H](O)CO[C@@H]32)cc1C(=O)N[C@H]1[C@@H](C(=O)Nc2ccc(F)c(C(F)(F)F)c2)[C@H]2CC[C@@H]1/C2=C\\C(F)(F)F"
target_system = "human RXFP1 (Homo sapiens, UniProt Q9HBX9)"
observed_property = "EC50"
observed_result = 1670

[[record]]
compound = "COc1ccc(C2=NO[C@@H]3C[C@@H](CO)CN23)cc1C(=O)N[C@H]1[C@@H](C(=O)Nc2ccc(F)c(C(F)(F)F)c2)[C@H]2CC[C@@H]1/C2=C\\C1CC1"
target_system = "human RXFP1 (Homo sapiens, UniProt Q9HBX9)"
observed_property = "EC50"
observed_result = 2.7

[[record]]
compound = "COc1ccc(C2=NOC3COCC23)cc1C(=O)N[C@H]1[C@@H](C(=O)NCc2ccccc2OC(F)(F)F)[C@H]2CC[C@@H]1/C2=C\\C1CC1 (some centres unmarked)"
target_system = "human RXFP1 (Homo sapiens, UniProt Q9HBX9)"
observed_property = "EC50"
observed_result = 82

[[record]]
compound = "COc1c(F)cc(C2=NOC3CC(CO)CC23)cc1C(=O)N[C@H]1[C@@H](C(=O)NC23CC(C#N)(C2)C3)[C@H]2CC[C@@H]1/C2=C\\C1CC1 (some centres unmarked)"
target_system = "human RXFP1 (Homo sapiens, UniProt Q9HBX9)"
observed_property = "EC50"
observed_result = 4.4

[[record]]
compound = "COc1ccc(-c2cnc3cc(CO)ccn23)cc1C(=O)N[C@@H]1C2CCC(/C2=C/C2CC2)[C@@H]1C(=O)Nc1ccc(F)c(C(F)(F)F)c1 (some centres unmarked)"
target_system = "human RXFP1 (Homo sapiens, UniProt Q9HBX9)"
observed_property = "EC50"
observed_result = 4.5

[[record]]
compound = "COC(=O)N1CC2ON=C(c3ccc(OC)c(C(=O)N[C@H]4[C@@H](C(=O)Nc5ccc(F)c(C(F)(F)F)c5)[C@H]5CC[C@@H]4/C5=C\\C4CC4)c3)C2C1 (some centres unmarked)"
target_system = "human RXFP1 (Homo sapiens, UniProt Q9HBX9)"
observed_property = "EC50"
observed_result = 24

[[record]]
compound = "COc1ccc(C2=NOC3COCC23)cc1C(=O)N[C@H]1[C@@H](C(=O)NC2CCC2)[C@H]2CC[C@@H]1/C2=C\\C1CC1 (some centres unmarked)"
target_system = "human RXFP1 (Homo sapiens, UniProt Q9HBX9)"
observed_property = "EC50"
observed_result = 191


Prompt line: Let me know recorded EC50 for COc1ccc(-c2cc(C(NC(=O)C3CCOCC3)C(=O)O)ccc2F)cc1C(=O)N[C@H]1[C@@H](C(=O)N[C@H](C)C2(C)CC2(F)F)[C@H]2CC[C@@H]1/C2=C\C1CC(F)(F)C1 (some centres unmarked) , thanks.
Response line: 2.8

Prompt line: Let me know recorded EC50 for COc1ccc(-c2cc(C(OC(=O)NC3CCCC3)C(F)(F)F)ccc2F)cc1C(=O)N[C@@H]1C2CCC(/C2=C/C2CC2)[C@@H]1C(=O)Nc1ccc(F)c(C(F)(F)F)c1 (some centres unmarked) , thanks.
Response line: 3

Prompt line: Let me know recorded EC50 for O=C(N[C@H]1[C@@H](C(=O)Nc2ccc(F)c(C(F)(F)F)c2)[C@H]2CC[C@@H]1/C2=C\C1CC1)c1cc(C2=NOC3CC(CO)CC23)ccc1F (single isomer, unassigned) [compound 473] , thanks.
Response line: 4.9
